System: ACHN renal
MEASUREMENT NOTES: NCI tumour cell line growth inhibition, 48 h
# reported TGI; entries follow

COMPOUND	STUDY TARGET	TGI
COc1ccc(CC(=O)NCCc2ccc(OC)c(OC)c2OC)cc1	ACHN renal	> 100 µM
CCN(CC)CCN(CC)CC.CCN(CC)CCN(CC)CC.[Cu+2].[Cu+2].[O-][Cl+3]([O-])([O-])[O-].[OH3+].[OH3+]	ACHN renal	> 100 µM
O=C(O)Cc1cccc2c(=O)cc(-c3ccccc3)oc12	ACHN renal	> 1000 µM
COC(NC(=O)Nc1ccc(C)cc1)(C(F)(F)F)C(F)(F)F	ACHN renal	> 100 µM
Cc1c(Cn2c(C)nc3c(C(=O)O)cc(N4CCOCC4)cc32)cccc1C(F)(F)F	ACHN renal	> 100 µM
NS(=O)(=O)c1ccc(NC(=O)N/N=C/c2ccccc2[N+](=O)[O-])cc1	ACHN renal	> 100 µM
O=C1c2c(c(=O)[nH]c3ccccc23)[C@H](c2ccccc2)[C@@H]2CCCN12	ACHN renal	14.9 µM
NCCCCC(NC(=O)C(N)CCCN=C(N)N)C(=O)NC(CCCCN)C(=O)NC(CCCN=C(N)N)C(=O)NC(CCCN=C(N)N)C(=O)NC(CCC(N)=O)C(=O)NC(CCCN=C(N)N)C(=O)NC(CCCN=C(N)N)C(=O)NC(CCCN=C(N)N)C(=O)NCC(=O)NCC(=O)O (centres undefined)	ACHN renal	> 50 µM
CN(C)c1ccc(/C=N/NC(N)=S)nc1	ACHN renal	> 100 µM
COc1cc(-c2nn(-c3cccc(NC(=O)Nc4ccc(Cl)c(C(F)(F)F)c4)c3)cc2-c2ccncc2)ccc1Cl	ACHN renal	15.6 µM
Nn1c(CCCCCCCCc2nnc(-c3c(O)ccc4ccccc34)n2N)nnc1-c1c(O)ccc2ccccc12	ACHN renal	> 100 µM
CSc1cc([C@@H]2C[C@H]2c2ccc(Cl)cc2)on1	ACHN renal	> 100 µM
Cc1ccc(OP(=O)(Oc2ccc(C)cc2)N2C=Cc3ccccc3C2C#N)cc1 (centres undefined)	ACHN renal	> 100 µM
CN(C)Cc1cc(Cl)c(O)c(CN(C)C)c1	ACHN renal	> 100 µM
C[C@H](Nc1nc(N)c(N=O)c(=O)n1C)C(=O)O	ACHN renal	> 10 µM
O=c1cc(-c2ccc(F)cc2)[nH]c2ncccc12	ACHN renal	> 100 µM
Cc1cccc(-c2nnc3s/c(=C\c4ccc(N(C)C)cc4)c(=O)n23)c1	ACHN renal	> 100 µM
O=C(C[n+]1ccccc1)N/N=C(/CCC(=O)N(Cc1ccccc1)Cc1ccccc1)CC(=O)c1ccccc1	ACHN renal	> 100 µM
Cc1ccc(S(=O)(=O)ON2C(=O)c3cccc4cc([N+](=O)[O-])cc(c34)C2=O)cc1	ACHN renal	> 100 µM

Sourced from PubChem BioAssay (NCI)
